- Tested on: NCI/ADR-RES ovarian
- Procedure summary: NCI-60 one-dose screen, 48 h
- Condition: 10 µM unless noted
The panel holds about 83,000 compounds, 20% with a hit somewhere; the sample as a whole holds those more often. Activity calls are given as the source filed them. The calls were made as follows: active = growth percent below 10; inactive = the rest.
The categories you may choose from are 1.0 = active, 0.0 = inactive

# count of solved cases: 2
| Molecule | Label value |
| --- | --- |
| COC(=O)C[C@](O)(CCCC(C)(C)O)C(=O)O[C@H]1C(OC)=C[C@@]23CCCN2CCc2cc4c(cc2[C@@H]13)OCO4 | 0.0 |
| CN(C)c1nc(NCCNS(=O)(=O)c2ccc(C3=Nc4c(N)nc(N)nc4NC(c4ccccc4)C3)cc2)nc(Nc2ccc(F)cc2)n1 (stereo not drawn) | 0.0 |

Request: State the result this test recorded for COc1ccc(C(=O)/C=C/c2ccc(OCc3ccccc3)c(OC)c2)cc1OC .
Result: 0.0

Request: State the result this test recorded for C=C1CCC2C3(C)COC(c4ccc(F)cc4)OC3CCC2(C)C1C/C=C1/C(=O)OCC1O (stereo not drawn) .
Result: 1.0

Request: State the result this test recorded for Cn1nc(C(F)(F)F)cc1-c1cc(Cl)c(COc2ccc(Cl)cc2)c(-c2ccc(Cl)c(C(F)(F)F)c2)c1O .
Result: 1.0

Request: State the result this test recorded for Cc1c(C(=O)NNC(=O)c2ccc(Cl)cc2)nnn1-c1ccc(Br)cc1 .
Result: 0.0

Request: State the result this test recorded for Cc1cc2c(cc1Cl)C(=O)/C(=C/c1ccccc1)O2 .
Result: 1.0

Request: State the result this test recorded for COc1ccc(-c2nc3cc(C)ccc3n2CC(=O)N=Nc2c(O)[nH]c3ccc(OC)cc23)cc1 .
Result: 1.0

Request: State the result this test recorded for COc1cc2oc(-c3cccc(NC(=O)[C@H](Cc4ccccc4)NC(=O)OC(C)(C)C)c3)cc(=O)c2c(OC)c1OC .
Result: 0.0

* * *

- Tested on: HCC-2998 colon
- Procedure summary: NCI-60 one-dose screen, 48 h
- Condition: 10 µM unless noted
About 83,000 compounds went through this panel and 20% of them were active in at least one assay; those are over-represented in the sample as a whole. Calls of active or inactive are those of the source. The calls were made as follows: active = growth percent below 10; inactive = the rest.
The categories you may choose from are active, inactive

Request: State the result this test recorded for COc1ccc(C(=O)/C=C/c2ccc(OCc3ccc(F)cc3)c(OC)c2)cc1OC .
Result: inactive

Request: State the result this test recorded for COc1ccc(-c2nnc3ccc(N/N=C/c4ccc(C)cc4)nn23)cc1 .
Result: inactive

Request: State the result this test recorded for CCCCCCCCOc1cccc(S(=O)(=O)Nc2ccc(C)cc2C(=O)O)c1 .
Result: inactive

Request: State the result this test recorded for O=C(O)c1ccc(-c2ccc(/C=N/NC(=O)c3[nH]c4ccc(Br)cc4c3-c3ccccc3)s2)cc1 .
Result: active

Request: State the result this test recorded for Cn1cc(-c2cc3nc(-c4cn(C)c5ncc(Br)cc45)cc(N)n3n2)c2ccccc21 .
Result: active

Request: State the result this test recorded for COc1ccc(CCC2c3c(cc4c(c3OC)OCO4)CCN2C)cc1 (stereo not given) .
Result: active

Request: State the result this test recorded for O=c1oc2ccccc2cc1-c1csc(N=Nc2c(O)[nH]c3ccc(Cl)cc23)n1 .
Result: inactive

Request: State the result this test recorded for Cc1c(C(=O)NNC(=O)Nc2ccc(Cl)cc2)nnn1-c1ccc(Br)cc1 .
Result: inactive

Request: State the result this test recorded for COc1cc(C2CC(c3cc(OC)c(OC)c(OC)c3)=NN2C(C)=O)ccc1OCc1ccccc1 (stereo not given) .
Result: inactive

Request: State the result this test recorded for CN1CCN(c2ccc(C(=O)/C=C/c3ccc(Br)cc3)cc2)CC1 .
Result: inactive

* * *

Each entry below carries its reported growth.
- Tested on: HOP-92 NSCLC
- Procedure summary: NCI-60 one-dose screen, 48 h (100 = growth as untreated, 0 = no growth, -100 = all killed)
- Condition: 10 µM unless noted
Compounds without any hit were thinned out: in the full panel of roughly 83,000, 20% have a hit.
Provide only the numeric value, understood in %.

Request: State its growth for this compound: CCOC(=O)C1=C(N)N(c2ccccc2)C2=C(C(=O)CC(C)(C)C2)C1c1ccccc1Cl (stereo not drawn)
Result: 68.9

* * *

- Tested on: DU-145 prostate
- Procedure summary: NCI-60 one-dose screen, 48 h (100 = growth as untreated, 0 = no growth, -100 = all killed)
- Condition: 10 µM unless noted
About 83,000 compounds went through this panel and 20% of them were active in at least one assay; those are over-represented in the sample as a whole.
Measure: growth (%)
Provide only the numeric value, understood in %.

| Molecule | Value reported |
| --- | --- |
| COc1cc(C2CC(c3cc(OC)c(OC)c(OC)c3)=NN2c2ccccc2)ccc1OCc1ccc(C)cc1 (stereo not given) | 100 |

Request: State its growth for this molecule: C#CCOc1cc(N(CC)CC)ccc1C(C(=O)NC(C)(C)C)N(C(=O)C1CCc2cc(F)ccc2O1)c1ccccc1F (stereo not given)
Result: 58.4

Request: State its growth for this molecule: CN1CCN(c2ccc(C(=O)/C=C/c3cc(C(F)(F)F)cc(C(F)(F)F)c3)cc2)CC1
Result: -73.9

Request: State its growth for this molecule: CCN1CCN(Cc2ccc(C(=O)Nc3cccc(C#Cc4cccc5[nH]nc(N)c45)c3)cc2C(F)(F)F)CC1
Result: -41.8

Request: State its growth for this molecule: O=c1[nH]c(=O)c2c(-c3cc4ccccc4oc3=O)ccnc2[nH]1
Result: 88

* * *

- System: SK-MEL-28 melanoma
- Procedure summary: NCI-60 one-dose screen, 48 h (100 = growth as untreated, 0 = no growth, -100 = all killed)
- Condition: 10 µM unless noted
This is part of a sample that, as a whole, favours compounds with a hit. Of some 83,000 tested, about 20% had one in any assay.
Each entry below carries its reported growth.
Provide only the numeric value, understood in %.

Request: State its growth for this compound: O=c1oc2ccc(Br)cc2cc1C1=CSc2nc3sc4c(c3c(=O)n2N=C1)CCCC4
Result: 105

Request: State its growth for this compound: N#Cc1c(-c2ccc(Br)cc2)nc2n[nH]c(-c3ccc(Br)cc3)c2c1-c1ccc(C(F)(F)F)cc1
Result: 49.5

Request: State its growth for this compound: Cc1nc(Nc2ncc(C(=O)Nc3c(C)cccc3Cl)s2)cc(N2CCN(CCCNC(=O)COc3ccc(C4CCC(=O)NC4=O)cc3)CC2)n1 (centres undefined)
Result: 89.4

Request: State its growth for this compound: COc1cc(-c2nc3ccc(C)cc3[nH]2)ccc1OCc1nnc(-c2ccc(Br)cc2)o1
Result: 27.1

* * *

- Test system: SK-MEL-28 melanoma
- Procedure summary: NCI-60 one-dose screen, 48 h
- Condition: 10 µM unless noted
About 83,000 compounds went through this panel and 20% of them were active in at least one assay; those are over-represented in the sample as a whole. Active and inactive are the calls of the source. How the source made its calls: active means growth percent below 10; inactive means the rest.
The categories you may choose from are active, inactive

# count of solved cases: 3
| Compound | Label value |
| --- | --- |
| COc1ccc(-c2ccnc(SCc3cc4cc(OC)ccc4[nH]c3=O)n2)cc1 | inactive |
| O=C1Nc2ccc([N+](=O)[O-])cc2C1=Nc1ccccc1 | inactive |
| COc1ccc(-c2nc3cc(C)ccc3n2CC(=O)N=Nc2c(O)[nH]c3ccc(Br)cc23)cc1 | active |

Request: State the result this test recorded for C=C1CCC2C3(C)COC(c4cccs4)OC3CCC2(C)C1CC(Sc1ccccc1)C1=CCOC1=O (stereo not given) .
Result: inactive

Request: State the result this test recorded for C(=C\c1cc(/C=C/c2ccccc2)c2ccccc2n1)/c1ccccc1 .
Result: inactive

Request: State the result this test recorded for CC(=O)Oc1ccccc1C(=O)[Se]CC(=O)Nc1cccc(C(F)(F)F)c1 .
Result: active

Request: State the result this test recorded for CC(=O)c1cc(C(=O)c2ccccc2)n2c1ccc1ccccc12 .
Result: inactive

* * *

- Test system: A549/ATCC NSCLC
- Procedure summary: NCI-60 one-dose screen, 48 h
- Condition: 10 µM unless noted
About 83,000 compounds went through this panel and 20% of them were active in at least one assay; those are over-represented in the sample as a whole. Activity calls are given as the source filed them. The calls were made as follows: active = growth percent below 10; inactive = the rest.
The categories you may choose from are T (active), F (inactive)

# count of solved cases: 10
| Compound | Label value |
| --- | --- |
| CC1=C(C(=O)OC(C)C)C(c2cccc(O)c2)NC(=S)N1 (stereo not given) | F |
| COc1cc2c(c(OC)c1OC)C(=O)CC(c1cccc(NC(=O)c3cc(NC(=O)[C@H](C)N)ccc3Cl)c1)O2 (stereo not given in full) | F |
| COc1ccc(-c2cc(C(=O)NCc3ccccc3)nn2-c2ccc(S(C)(=O)=O)cc2)cc1OC | F |
| COc1ccc(C(=O)/C=C/c2cccc3ccccc23)cc1S(N)(=O)=O | T |
| CCOC(=O)/C=C/c1cccc2c1C(=O)NC(C)(c1cc3cc(Br)ccc3oc1=O)N2 (stereo not given) | F |
| COc1ccc(-c2ccnc(SCc3cc4ccccc4[nH]c3=O)n2)cc1 | F |
| Cn1cc(-c2cc3nc(-c4cn(C)c5ncc(Br)cc45)cc(N)n3n2)c2ccccc21 | T |
| N#Cc1c(-c2ccccc2Cl)cc(-c2ccc3ccccc3c2)[nH]c1=O | F |
| Cc1cc(=O)oc2cc(OCCCCOc3ccc(/C=C/C(=O)Nc4ccccc4N)cc3)ccc12 | F |
| Cc1ccccc1[C@H]1C(C(=O)c2ccc(Cl)cc2)C2(N[C@@H]1c1ccccc1)C(=O)Nc1ccccc12 (stereo not given in full) | T |

Request: State the result this test recorded for Cc1cc2nc3c4ccccc4n(CCNCCN(C)C)c3nc2cc1C .
Result: F

Request: State the result this test recorded for Cc1cc2nc3c4ccccc4n(CCCN(C)C)c3nc2cc1C .
Result: T
